Source of measurements: PubChem BioAssay AID1963862

- System: KRAS patient-derived spheroids with HUVEC/MSC, viability
- Assay Overview: Anticancer human tumor 941728-121-R-J1-PDC patient-derived lung adenocarcinoma cell line growth inhibition [KRAS2]
- Condition Context: curve of first compound; second compound 1 µM
Measure: IC50

Lookup: So what's the measured IC50 for this one? CC(=O)OC12COC1CC(O)C1(C)C(=O)C(O)C3=C(C)C(OC(=O)C(O)C(NC(=O)OC(C)(C)C)c4ccccc4)CC(O)(C(OC(=O)c4ccccc4)C21)C3(C)C (stereo not given) + CC1OCC2(CCN(c3cnc(Sc4ccnc(N)c4Cl)c(N)n3)CC2)C1N
Found: < 10 nM

Lookup: Query (compound): CCN1CCN(Cc2ccc(Nc3ncc(F)c(-c4cc(F)c5nc(C)n(C(C)C)c5c4)n3)nc2)CC1 + C=CC(=O)N1CCN(c2nc(=O)n(-c3c(C)ccnc3C(C)C)c3nc(-c4c(O)cccc4F)c(F)cc23)C(C)C1 ; field requested: IC50
Found: < 3.16 nM

Lookup: Which IC50 is reported for this compound? CN(C)C/C=C/C(=O)Nc1cc2c(Nc3ccc(F)c(Cl)c3)ncnc2cc1O[C@H]1CCOC1 + CC1OCC2(CCN(c3cnc(Sc4ccnc(N)c4Cl)c(N)n3)CC2)C1N
Found: > 100 nM

Lookup: Suppose we examine the compound CC(=O)Nc1cccc(-n2c(=O)n(C3CC3)c(=O)c3c(Nc4ccc(I)cc4F)n(C)c(=O)c(C)c32)c1 + COc1cc2nc(C)nc(NC(C)c3cc(N)cc(C(F)(F)F)c3)c2cc1OC1CCOC1 ; what IC50 value has been reported?
Found: < 0.1 nM

Lookup: Could you tell me which IC50 is on file for CC1OCC2(CCN(c3cnc(Sc4ccnc(N)c4Cl)c(N)n3)CC2)C1N (stereo not given) + CNCc1ccccc1-c1csc(C(C)Nc2nc(C)nc3cc(OC)c(OC)cc23)c1 ?
Found: < 31.6 nM

Lookup: I have this compound here, CC(=O)Nc1cccc(-n2c(=O)n(C3CC3)c(=O)c3c(Nc4ccc(I)cc4F)n(C)c(=O)c(C)c32)c1 + C=CC(=O)N1CCN(c2nc(OCC3CCCN3C)nc3c2CCN(c2cccc4cccc(C)c24)C3)CC1CC#N , and I need its recorded IC50.
Found: < 0.1 nM

Lookup: Can you share its IC50? I mean this compound: CC(=O)Nc1cccc(-n2c(=O)n(C3CC3)c(=O)c3c(Nc4ccc(I)cc4F)n(C)c(=O)c(C)c32)c1 + C=CC(=O)N1CCN(c2nc(=O)n(-c3c(C)ccnc3C(C)C)c3nc(-c4c(O)cccc4F)c(F)cc23)C(C)C1
Found: < 0.1 nM

Lookup: Can you share its IC50? I mean this compound: CN(C)C/C=C/C(=O)Nc1cc2c(Nc3ccc(F)c(Cl)c3)ncnc2cc1O[C@H]1CCOC1 + C=CC(=O)N1CCN(c2nc(OCC3CCCN3C)nc3c2CCN(c2cccc4cccc(C)c24)C3)CC1CC#N
Found: < 0.316 nM

Lookup: GET /values?readout=IC50&item= Cn1ncnc1[C@H]1c2n[nH]c(=O)c3cc(F)cc(c23)N[C@@H]1c1ccc(F)cc1 + CC1OCC2(CCN(c3cnc(Sc4ccnc(N)c4Cl)c(N)n3)CC2)C1N
Found: < 0.316 nM

Lookup: So what does the record say about IC50 for CC1(C)CCC(CN2CCN(c3ccc(C(=O)NS(=O)(=O)c4ccc(NCC5CCOCC5)c([N+](=O)[O-])c4)c(Oc4cnc5[nH]ccc5c4)c3)CC2)=C(c2ccc(Cl)cc2)C1 + CNCc1ccccc1-c1csc(C(C)Nc2nc(C)nc3cc(OC)c(OC)cc23)c1 ?
Found: < 31.6 nM

* * *

Kindly state viability, T/C for each of the entries shown.
- Test system: KRAS patient-derived spheroids with HUVEC/MSC, viability
- Assay Overview: Anticancer human tumor 941728-121-R-J1-PDC cell line growth inhibition [KRAS2];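 also: spheroids exposed to agents for seven days before readout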
- Condition Context: second compound 10 µM; first compound 0.1 µM; stronger effect = lower value
The figure you give is taken to be in %; do not add the unit.

Lookup: Reported viability, T/C for COC(=O)c1ccc2c(C(=Nc3ccc(N(C)C(=O)CN4CCN(C)CC4)cc3)c3ccccc3)c(O)[nH]c2c1 + C=CC(=O)N1CCN(c2nc(=O)n(-c3c(C)ccnc3C(C)C)c3nc(-c4c(O)cccc4F)c(F)cc23)C(C)C1 : what is it?
Found: 30.2

Lookup: Recorded viability, T/C of CC(=O)OC12COC1CC(O)C1(C)C(=O)C(O)C3=C(C)C(OC(=O)C(O)C(NC(=O)OC(C)(C)C)c4ccccc4)CC(O)(C(OC(=O)c4ccccc4)C21)C3(C)C (stereo not drawn) + CC1OCC2(CCN(c3cnc(Sc4ccnc(N)c4Cl)c(N)n3)CC2)C1N , please.
Found: 23.1

Lookup: May I ask what viability, T/C has been recorded for CC1COCCN1c1cc(-c2ccnn2C)c2ccnc(-c3ccn[nH]3)c2n1 (stereo not drawn) + CC1OCC2(CCN(c3cnc(Sc4ccnc(N)c4Cl)c(N)n3)CC2)C1N ?
Found: 19.2

* * *

- Tested on: KRAS patient-derived spheroids with HUVEC/MSC, viability
- Assay Overview: Anticancer human tumor 941728-121-R-J1-PDC cell line growth inhibition [KRAS2];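 also: spheroids exposed to agents for seven days before readout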
- Condition Context: second compound 0.1 µM; first compound 1 µM; stronger effect = lower value
- Source text: Multicellular complex tumor spheroid response to RAS pathway inhibitors in combination with a targeted agents in patient-derived cell lines with oncogenic KRAS variants from multiple cancer types A high-throughput screen of multi-cell type tumor spheroids was designed to identify active combinations of targeted small molecules and KRAS pathway inhibitors. […] Compounds. […] If the clinical Cmax for an agent had not been determined, the highest concentration tested was 10 microM. […]
Lab note - cut at 20% for viability, T/C: TRUE if strictly below, FALSE if not.

Lookup: Hi there! Is viability, T/C for COc1cc(Nc2ncc3c(n2)-c2ccc(Cl)cc2C(c2c(F)cccc2OC)=NC3)ccc1C(=O)O + C=CC(=O)N1CCN(c2nc(=O)n(-c3c(C)ccnc3C(C)C)c3nc(-c4c(O)cccc4F)c(F)cc23)C(C)C1 below 20%, do you know?
Found: FALSE

Lookup: Bench note: check whether CC(C)NCC(C(=O)N1CCN(c2ncnc3c2C(C)CC3O)CC1)c1ccc(Cl)cc1 (stereo not given) + C=CC(=O)N1CCN(c2nc(=O)n(-c3c(C)ccnc3C(C)C)c3nc(-c4c(O)cccc4F)c(F)cc23)C(C)C1 shows viability, T/C below 20%
Found: TRUE

Lookup: Hello, is viability, T/C of the following compound strictly smaller than 20%? CC1COCCN1c1cc(-c2ccnn2C)c2ccnc(-c3ccn[nH]3)c2n1 (stereo not given) + C=CC(=O)N1CCN(c2nc(OCC3CCCN3C)nc3c2CCN(c2cccc4cccc(C)c24)C3)CC1CC#N
Found: TRUE

Lookup: For COc1cc2nccc(Oc3ccc(NC(=O)C4(C(=O)Nc5ccc(F)cc5)CC4)cc3)c2cc1OC + C=CC(=O)N1CCN(c2nc(=O)n(-c3c(C)ccnc3C(C)C)c3nc(-c4c(O)cccc4F)c(F)cc23)C(C)C1 , is the recorded viability, T/C below the cut-off of 20%?
Found: TRUE

* * *

Field: pIC50. Provide a value for each of the compounds that follow.
- System: KRAS patient-derived spheroids with HUVEC/MSC, viability
- Assay Overview: Anticancer human tumor 941728-121-R-J1-PDC cell line growth inhibition [KRAS2];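 also: spheroids exposed to agents for seven days before readout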
- Condition Context: curve of first compound; second compound 1 µM
pIC50: −log10 of the molar value.

Lookup: API: value(readout= pIC50, system= KRAS patient-derived spheroids with HUVEC/MSC, viability, query= CC1(C)CCC(CN2CCN(c3ccc(C(=O)NS(=O)(=O)c4ccc(NCC5CCOCC5)c([N+](=O)[O-])c4)c(Oc4cnc5[nH]ccc5c4)c3)CC2)=C(c2ccc(Cl)cc2)C1 + COc1cc2nc(C)nc(NC(C)c3cc(N)cc(C(F)(F)F)c3)c2cc1OC1CCOC1 )
Found: > 7.50

Lookup: Give the reported pIC50 for CN(C)C/C=C/C(=O)Nc1cc2c(Nc3ccc(F)c(Cl)c3)ncnc2cc1O[C@H]1CCOC1 + CNCc1ccccc1-c1csc(C(C)Nc2nc(C)nc3cc(OC)c(OC)cc23)c1 (system: KRAS patient-derived spheroids with HUVEC/MSC, viability).
Found: > 9.50

Lookup: Please provide the recorded pIC50 for CC1COCCN1c1cc(-c2ccnn2C)c2ccnc(-c3ccn[nH]3)c2n1 (stereo unspecified) + COc1cc2nc(C)nc(NC(C)c3cc(N)cc(C(F)(F)F)c3)c2cc1OC1CCOC1 , tested on KRAS patient-derived spheroids with HUVEC/MSC, viability.
Found: 7.84

Lookup: Param readout= pIC50; system= KRAS patient-derived spheroids with HUVEC/MSC, viability; entry= CCNC(=O)CC1N=C(c2ccc(Cl)cc2)c2cc(OC)ccc2-n2c(C)nnc21 (stereo unspecified) + C=CC(=O)N1CCN(c2nc(OCC3CCCN3C)nc3c2CCN(c2cccc4cccc(C)c24)C3)CC1CC#N ; returns value.
Found: > 7.50

Lookup: Form field - read-out: pIC50; system: KRAS patient-derived spheroids with HUVEC/MSC, viability; submitted item: O=C(c1cc(Cc2n[nH]c(=O)c3ccccc23)ccc1F)N1CCN(C(=O)C2CC2)CC1 + CC1OCC2(CCN(c3cnc(Sc4ccnc(N)c4Cl)c(N)n3)CC2)C1N
Found: 7.06

Lookup: Param readout = pIC50; param system = KRAS patient-derived spheroids with HUVEC/MSC, viability; param query = CC1COCCN1c1cc(-c2ccnn2C)c2ccnc(-c3ccn[nH]3)c2n1 (stereo unspecified) + CC1OCC2(CCN(c3cnc(Sc4ccnc(N)c4Cl)c(N)n3)CC2)C1N ; response: value
Found: > 8.00
